assayed_target: Leukotriene A-4 hydrolase (Cavia porcellus, UniProt P19602)
Sequence (P19602 whole entry): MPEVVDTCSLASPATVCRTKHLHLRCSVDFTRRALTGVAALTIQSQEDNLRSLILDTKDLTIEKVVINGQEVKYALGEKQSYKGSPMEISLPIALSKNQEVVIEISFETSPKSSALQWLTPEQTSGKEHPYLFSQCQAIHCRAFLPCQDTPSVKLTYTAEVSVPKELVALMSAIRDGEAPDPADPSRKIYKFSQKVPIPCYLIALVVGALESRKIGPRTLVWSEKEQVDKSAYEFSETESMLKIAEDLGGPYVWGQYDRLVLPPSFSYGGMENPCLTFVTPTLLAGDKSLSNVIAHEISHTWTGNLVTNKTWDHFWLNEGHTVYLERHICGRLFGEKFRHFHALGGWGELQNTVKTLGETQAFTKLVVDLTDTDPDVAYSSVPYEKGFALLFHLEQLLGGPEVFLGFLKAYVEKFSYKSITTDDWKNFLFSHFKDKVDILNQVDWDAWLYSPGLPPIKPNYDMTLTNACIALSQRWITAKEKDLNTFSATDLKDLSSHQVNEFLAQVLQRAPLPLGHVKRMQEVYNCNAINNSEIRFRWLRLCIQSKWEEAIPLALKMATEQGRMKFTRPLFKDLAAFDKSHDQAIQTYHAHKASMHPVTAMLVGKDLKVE
assay_explanation: Inhibition of LTA4 hydrolase in guinea pig lung assessed as inhibition of LTB4 production
run_conditions: read-out: IC50
endpoint: IC50 (µM)

a. C[C@H](CS)C(=O)N[C@@H](CSCc1ccc([N+](=O)[O-])cc1)C(=O)O
b. C[C@H](CS)C(=O)N[C@@H](CSCc1ccc(Oc2ccccc2)cc1)C(=O)O
c. CC(C)c1ccc(C(C)(C)SC[C@H](NC(=O)[C@H](C)CS)C(=O)O)cc1
d. CCCCC(SC[C@H](NC(=O)[C@H](C)CS)C(=O)O)c1ccc(C(C)C)cc1 (stereo not given in full)
**Q:** Sort ascending by IC50: all records listed above. Your answer should be the labels, listed in the requested order.
**A:** c, d, b, a
(c: 0.079 µM, d: 0.51 µM, b: 1.7 µM, a: 4.9 µM)
